target: human NK1R (Homo sapiens, UniProt P25103); construct: expressed in transfected cells; assay: Binding assay of human NK1R expressed in COS or CHO cells, displacement of 125I-substance P (Table 1, hNK1); conditions: human NK1 receptor, 125I-substance P ligand; read-out: hNK1 (IC50 nM)
Sequence (P25103 whole entry): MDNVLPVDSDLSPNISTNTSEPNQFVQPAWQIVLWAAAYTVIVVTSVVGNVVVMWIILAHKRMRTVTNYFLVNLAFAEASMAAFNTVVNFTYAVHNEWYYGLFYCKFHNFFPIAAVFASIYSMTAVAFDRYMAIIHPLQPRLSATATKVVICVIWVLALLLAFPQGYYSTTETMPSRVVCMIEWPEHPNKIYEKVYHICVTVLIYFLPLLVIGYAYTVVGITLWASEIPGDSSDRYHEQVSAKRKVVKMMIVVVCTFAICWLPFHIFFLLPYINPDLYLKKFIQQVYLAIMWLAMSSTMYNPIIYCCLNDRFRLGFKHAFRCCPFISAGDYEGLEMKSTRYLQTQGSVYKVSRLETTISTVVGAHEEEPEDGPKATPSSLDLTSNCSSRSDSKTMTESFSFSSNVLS
REPORTED_ENDPOINT: IC50 (nM)

CHEMICAL_SMILES | TARGET_OF_ASSAY | SCALE_UNIT | READOUT_NUMBER
CN(Cc1ccccc1)C(=O)[C@@H](Cc1c[nH]c2ccccc12)NC(=O)N1CCC(c2ccccc2)CC1 | human NK1R (Homo sapiens, UniProt P25103) | nM | 750

a: COc1ccccc1N1CCN(C(=O)N[C@@H](Cc2c[nH]c3ccccc23)C(=O)N(C)Cc2ccccc2)CC1
b: CN(Cc1cc(Cl)cc(Cl)c1)C(=O)[C@H](Cc1c[nH]c2ccccc12)NC(=O)N1CCC2(CC1)CN(S(C)(=O)=O)c1ccccc12
c: CCN(Cc1ccccc1)C(=O)[C@H](Cc1c[nH]c2ccccc12)NC(=O)N1CCC2(CCc3ccccc32)CC1
Rank ascending by IC50. Give the order by naming the labels one after another as requested.
b, a, c

Just for reference, patent US5869489A is where these values come from.
